measured-property: melting point

INSERT INTO measurements (compound_string, data_value) VALUES
  ('CN(C)CCc1cn(C)c2c(F)ccc(OCc3ccccc3)c12', '60 to 62 °C'),
  ('CN(C)CCc1cn(C)c2cc(O)c(F)cc12', '165 to 169 °C'),
  ('CCn1cc(CCN(C)C)c2c(OC)c(F)ccc21.Cl', '149 to 150 °C'),
  ('COc1c(F)ccc2c1c(CCN(C)C)cn2C.Cl', '183.6 to 186.8 °C'),
  ('CN(C)CCc1cn(C)c2cc(F)cc(OCc3ccccc3)c12', '79 to 80 °C');

----------
Below is a list of entries, each paired with its recorded Emax at 10 µM value.
molecular target: human 5-HT2A receptor (Homo sapiens, UniProt P28223); construct: expressed in transfected cells; host or cells: HEK 293; assay: Intracellular calcium flux assay, HEK 293 cells stably expressing 5-HT2A; type: cell-based; details: HEK293; at 10,000 nM; read-out: 5-HT2A functional activity (N/A class);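 further: fluorescent calcium dye read on FLIPR Tetra, peak signal above baseline within 60 s after compound addition, seven concentrations spanning 10 pM to 10 µM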
Sequence (P28223 whole entry): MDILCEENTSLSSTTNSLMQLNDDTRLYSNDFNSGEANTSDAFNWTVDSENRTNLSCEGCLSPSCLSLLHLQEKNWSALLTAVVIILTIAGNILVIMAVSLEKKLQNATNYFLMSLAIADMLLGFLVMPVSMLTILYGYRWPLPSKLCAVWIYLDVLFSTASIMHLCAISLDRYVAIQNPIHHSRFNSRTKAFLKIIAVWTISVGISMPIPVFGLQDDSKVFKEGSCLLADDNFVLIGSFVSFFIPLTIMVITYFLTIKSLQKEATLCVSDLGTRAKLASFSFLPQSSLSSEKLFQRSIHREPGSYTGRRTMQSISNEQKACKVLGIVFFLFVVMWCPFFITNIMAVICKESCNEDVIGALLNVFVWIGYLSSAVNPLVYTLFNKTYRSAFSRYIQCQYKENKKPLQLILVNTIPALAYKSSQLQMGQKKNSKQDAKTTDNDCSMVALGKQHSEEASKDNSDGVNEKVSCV
Where a name gives a salt, the structure may show the parent alone.
measured-property: Emax at 10 µM

INSERT INTO assay_data (compound, measured_property, data_value) VALUES
  ('CCOc1c(F)ccc2c1c(CCN(C)C)cn2C [Compound 59, hydrochloride]', 'Emax at 10 µM', '< 10%'),
  ('CCOc1c(F)ccc2c1c(CCN(C)C)cn2CC.Cl [Compound 60, hydrochloride]', 'Emax at 10 µM', '< 10%'),
  ('CCCOc1ccc(F)c2c1c(CCN(C)C)cn2CC [Compound 25]', 'Emax at 10 µM', '< 10%'),
  ('CCCn1cc(CCN(C)C)c2c(OC)ccc(F)c21 [Compound 28]', 'Emax at 10 µM', '< 10%'),
  ('COc1ccc(Br)c2c1c(CCN(C)C)cn2C.Cl [Compound 73, hydrochloride]', 'Emax at 10 µM', '< 10%');

----------
molecular target: 5-HT2C (Homo sapiens); assay: Intracellular calcium flux assay, HEK 293 cells stably expressing 5-HT2C; format: cell-based; set-up: expressed in transfected cells; host or cells: HEK 293; details: HEK293, read-out: 5-HT2C efficacy as percentage of the maximal 5-HT response ± SD, at least three independent experiments, entries marked a (42, 50, 51, 52) single measurements;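 further: calcium dye fluorescence read on FLIPR Tetra as peak signal above baseline within 60 s of compound addition, seven concentrations from 10 pM to 10 µM, each in triplicate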
Sequence (P28335 33-458): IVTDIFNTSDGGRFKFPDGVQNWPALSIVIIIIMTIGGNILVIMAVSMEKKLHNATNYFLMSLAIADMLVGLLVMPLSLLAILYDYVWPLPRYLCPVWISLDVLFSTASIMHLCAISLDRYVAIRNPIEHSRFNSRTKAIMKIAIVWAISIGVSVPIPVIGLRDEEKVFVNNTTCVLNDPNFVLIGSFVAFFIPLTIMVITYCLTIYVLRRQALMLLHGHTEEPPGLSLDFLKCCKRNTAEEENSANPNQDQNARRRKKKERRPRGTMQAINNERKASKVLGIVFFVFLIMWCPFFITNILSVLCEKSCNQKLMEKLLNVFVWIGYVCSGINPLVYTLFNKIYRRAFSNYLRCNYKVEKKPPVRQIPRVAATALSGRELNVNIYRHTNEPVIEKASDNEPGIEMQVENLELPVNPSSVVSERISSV
Structures can show the parent of a compound that is named as a salt.
measured-property: Emax (%)

INSERT INTO assay_data (compound, measured_property, data_value) VALUES
  ('CCOc1ccc(F)c2c1c(CCN(C)C)cn2C', 'Emax', 82),
  ('CCCn1cc(CCN(C)C)c2c(OCC)cc(F)cc21.Cl [Compound 38, hydrochloride]', 'Emax', 80),
  ('CN(C)CCc1cn(C)c2cc(O)c(F)cc12', 'Emax', 83),
  ('CCn1cc(CCN(C)C)c2c(OC)cc(F)cc21.Cl [Compound 34, hydrochloride]', 'Emax', 82),
  ('COc1c(F)ccc2c1c(CCN(C)C)cn2C.Cl [Compound 40, hydrochloride]', 'Emax', 72),
  ('CCOc1cc(F)cc2c1c(CCN(C)C)cn2CC', 'Emax', 88),
  ('CCCOc1cc(F)cc2c1c(CCN(C)C)cn2CC', 'Emax', 87),
  ('CCOc1c(F)ccc2c1c(CCN(C)C)cn2C [Compound 59, hydrochloride]', 'Emax', 51),
  ('CN(C)CCc1cn(C)c2c(F)ccc(F)c12.Cl [Compound 65, hydrochloride]', 'Emax', 41);
